# procedure.details: yeast display, Sf9 membrane polyspecificity reagent, FACS + sequencing; frameworks hold sequencing errors
readout.kind: polyreactivity (PSR sort gate)

>>> endpoint_result("QVQLVESGGGLVQAGGSLRLSCAASGRTFYRYSMGWYRQAPGKERELVAGISTRGGSTYYADSVKGRFTISRDNAKNTVYLQMNSLKPEDTAVYYCAAAPLAFRYDYWGQGTHVTVSS")
"high polyreactivity"
>>> endpoint_result("QVQLVESGGGLVQAGGSLRLSCAASGFTFAYNAMGWYRQAPGKEREFVAAITSSGGSTYYADSVKGRFTISRDYAKNTVYLQMNSLKPEHTAVYYCNAYYTFPRYQYGYWGQGTQVTVSS")
"high polyreactivity"
